FYI, the data here is from patent US20200292534A1.

# TARGET_OR_SYSTEM: T1, ATG
# T1 chain: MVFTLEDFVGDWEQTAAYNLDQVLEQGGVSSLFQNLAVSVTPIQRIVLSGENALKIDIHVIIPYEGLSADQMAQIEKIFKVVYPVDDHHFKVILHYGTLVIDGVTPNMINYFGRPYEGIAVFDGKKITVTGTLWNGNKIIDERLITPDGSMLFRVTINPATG
# EXPERIMENT_SUMMARY: luminescence complementation
# CONDITION_DETAILS: chains peptide; modification not given
OUTCOME_MEASURE: pKd
The value called pKd is obtained by taking minus log10 of the concentration in mol/L.

Quick note, pKd for GWRLFKKISN [NLpep82] landed at 6.64
